For reference, MIC measured on Escherichia coli ATCC 10536:
Write the value in µg/mL as a bare number.

compound	MIC / µg/mL
COc1cc(NC(C)CCCN)c2ncccc2c1 (stereo not shown) [PQ, reference compound]	65

Next:
Recorded MIC for COc1cc(NC(C)CCCNC(=O)NC(C(=O)NC(c2ccccc2)c2ccccc2)c2ccc(Cl)cc2)c2ncccc2c1 (stereo not shown) on Escherichia coli ATCC 10536 was 60

----------
For reference, MIC measured on Staphylococcus aureus ATCC 6538:
Write the value in µg/mL as a bare number.

compound	MIC [µg/mL]
CN(C)[C@@H]1C(O)=C(C(N)=O)C(=O)[C@@]2(O)C(O)=C3C(=O)c4c(O)cccc4[C@@](C)(O)[C@H]3C[C@@H]12 [TC, tetracycline, reference compound]	0.31

Next:
// sample COc1cc(NC(C)CCCN)c2ncccc2c1 (stereo not shown) [PQ, reference compound] , its MIC was 50

----------
hemolysis at 1 h, 100 µg/ml for assorted molecules
- test method notes: In vitro haemolytic activity
- Assay type: cell-based
- test context: male, 4% (v/v) fresh human erythrocyte suspension, pH 7, 100 μg/ml, 4% human erythrocytes, read-out: Haemolysis (%)
Answers without a unit are incomplete; give the number and then its unit.

molecule	hemolysis at 1 h, 100 µg/ml
COc1ccc(C(=NNC(=O)C(NC(=O)NCCCC(C)Nc2cc(OC)cc3cccnc23)c2ccc(Cl)cc2)c2ccccc2)cc1 (stereo not drawn)	3.66%
COc1cc(NC(C)CCCNC(=O)NC(C(=O)NC(c2ccccc2)c2ccc(Cl)cc2)c2ccc(Cl)cc2)c2ncccc2c1 (stereo not drawn)	3.23%
COc1cc(NC(C)CCCNC(=O)NC(C(=O)NC(c2ccccc2)c2ccccc2)c2ccc(Cl)cc2)c2ncccc2c1 (stereo not drawn)	2.94%
COc1cc(NC(C)CCCNC(=O)NC(C(=O)N(C)C(c2ccccc2)c2ccccc2)c2ccccc2)c2ncccc2c1 (stereo not drawn)	3.94%
COc1cc(NC(C)CCCNC(=O)NC(CC(C)C)C(=O)NC(c2ccccc2)c2ccccc2)c2ncccc2c1 (stereo not drawn)	4.03%

// sample COc1cc(NC(C)CCCNC(=O)NC(C(=O)NC(c2ccccc2)c2ccc(Cl)cc2)c2ccccc2)c2ncccc2c1 (stereo not drawn) , its hemolysis at 1 h, 100 µg/ml was 4.26%

----------
- test method notes: In vitro haemolytic activity
- Format: cell-based
- test context: male, 4% (v/v) fresh human erythrocyte suspension, pH 7, 50 μg/ml, 4% human erythrocytes, read-out: Haemolysis (%)
- Protocol: Then, 4% (v/v) of fresh human erythrocyte solution (hErc) was prepared using a PBS pH 7.0 solution. A series of diluted compounds from 200 to 50 µg/ml were prepared in a total volume of 1 ml with hErc solution. […] Absorbance of the supernatant (200 µl) was recorded at 540 nm using an iEMS microplate reader. […] All tests were performed in triplicate and the results were expressed as haemolysis percentage (mean ± SD). […]
quantity measured: hemolysis at 1 h, 50 µg/ml (%)
Write the value in % as a bare number.

compound	hemolysis at 1 h, 50 µg/ml (%)
COc1cc(NC(C)CCCNC(=O)NC(C(=O)NC(c2ccccc2)c2ccc(Cl)cc2)c2ccc(Cl)cc2)c2ncccc2c1 (stereo not drawn)	2.78
COc1cc(NC(C)CCCNC(=O)NC(C(=O)NC(c2ccccc2)c2ccc(Cl)cc2)c2ccccc2)c2ncccc2c1 (stereo not drawn)	3.06
COc1cc(NC(C)CCCNC(=O)NC(CC(C)C)C(=O)NC(c2ccccc2)c2ccccc2)c2ncccc2c1 (stereo not drawn)	3.14
COc1ccc(C(=NNC(=O)C(NC(=O)NCCCC(C)Nc2cc(OC)cc3cccnc23)c2ccc(Cl)cc2)c2ccccc2)cc1 (stereo not drawn)	3.32
COc1cc(NC(C)CCCNC(=O)NC(C(=O)NC(c2ccccc2)c2ccccc2)c2ccc(Cl)cc2)c2ncccc2c1 (stereo not drawn)	2.56

Next:
// sample COc1cc(NC(C)CCCNC(=O)NC(C(=O)N(C)C(c2ccccc2)c2ccccc2)c2ccccc2)c2ncccc2c1 (stereo not drawn) , its hemolysis at 1 h, 50 µg/ml was 3.13

----------
- system: soybean lipoxygenase (LOX) (Glycine max, UniProt P08170)
- Construct: purchased Sigma-Aldrich
- Sequence (P08170 whole entry): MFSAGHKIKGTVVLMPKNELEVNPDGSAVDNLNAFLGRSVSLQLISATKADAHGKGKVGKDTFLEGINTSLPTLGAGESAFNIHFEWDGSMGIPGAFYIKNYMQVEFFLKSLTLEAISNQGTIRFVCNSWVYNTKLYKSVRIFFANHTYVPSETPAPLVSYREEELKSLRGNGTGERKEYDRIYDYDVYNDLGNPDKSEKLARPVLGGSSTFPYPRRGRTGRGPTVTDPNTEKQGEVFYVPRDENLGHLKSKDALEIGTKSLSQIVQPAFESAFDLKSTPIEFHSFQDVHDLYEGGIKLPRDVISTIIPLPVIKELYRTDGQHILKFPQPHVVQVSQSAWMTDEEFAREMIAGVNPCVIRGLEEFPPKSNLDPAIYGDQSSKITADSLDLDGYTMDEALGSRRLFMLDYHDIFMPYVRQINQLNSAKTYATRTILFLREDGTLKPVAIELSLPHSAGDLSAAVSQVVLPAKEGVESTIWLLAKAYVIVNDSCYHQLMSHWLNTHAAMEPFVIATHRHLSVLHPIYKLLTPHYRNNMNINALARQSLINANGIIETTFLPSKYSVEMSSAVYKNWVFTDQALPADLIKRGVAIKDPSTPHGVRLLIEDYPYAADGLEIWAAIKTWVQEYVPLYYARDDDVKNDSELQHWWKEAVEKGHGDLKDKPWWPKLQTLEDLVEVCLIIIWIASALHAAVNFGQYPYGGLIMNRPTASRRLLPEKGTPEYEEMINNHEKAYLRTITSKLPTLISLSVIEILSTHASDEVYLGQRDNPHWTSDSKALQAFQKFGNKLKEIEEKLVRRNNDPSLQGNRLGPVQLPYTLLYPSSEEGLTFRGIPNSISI
- test method notes: In vitro soybean lipoxygenase (LOX) inhibition
- Format: biochemical
- test context: sodium linoleate 0.1 mM, read-out: LOX inhibition (IC50 μM) ± SD
IC50 for assorted compounds
Write the value in µM as a bare number.

Recorded IC50 for COc1ccc(C(=NNC(=O)C(NC(=O)NCCCC(C)Nc2cc(OC)cc3cccnc23)c2ccc(Cl)cc2)c2ccccc2)cc1 (centres unmarked) [Compound 5f] on soybean lipoxygenase (LOX) (Glycine max, UniProt P08170) was 67.5

Recorded IC50 for COc1cc(NC(C)CCCNC(=O)NC(C(=O)N(C)C(c2ccccc2)c2ccccc2)c2ccccc2)c2ncccc2c1 (centres unmarked) [Compound 5b] on soybean lipoxygenase (LOX) (Glycine max, UniProt P08170) was 69

Recorded IC50 for COc1cc(NC(C)CCCNC(=O)NC(C(=O)NC(c2ccccc2)c2ccccc2)c2ccc(Cl)cc2)c2ncccc2c1 (centres unmarked) [Compound 5d] on soybean lipoxygenase (LOX) (Glycine max, UniProt P08170) was 41.5

Recorded IC50 for COc1cc(NC(C)CCCNC(=O)NC(C(=O)NC(c2ccccc2)c2ccc(Cl)cc2)c2ccc(Cl)cc2)c2ncccc2c1 (centres unmarked) [Compound 5e] on soybean lipoxygenase (LOX) (Glycine max, UniProt P08170) was 56

Recorded IC50 for COc1cc(NC(C)CCCNC(=O)NC(C(=O)NC(c2ccccc2)c2ccc(Cl)cc2)c2ccccc2)c2ncccc2c1 (centres unmarked) [Compound 5c] on soybean lipoxygenase (LOX) (Glycine max, UniProt P08170) was 40

----------
For reference, MIC measured on Issatchenkia orientalis Kudrjanzev ATCC 6258:

Known results for compounds:
compound	MIC
COc1cc(NC(C)CCCNC(=O)NC(C(=O)NC(c2ccccc2)c2ccccc2)c2ccc(Cl)cc2)c2ncccc2c1 (centres unmarked)	> 100 mg/L
C[C@@H]1[C@H](O)[C@@H](C)/C=C/C=C/C=C/C=C/C=C/C=C/C=C/[C@H](O[C@@H]2O[C@H](C)[C@@H](O)[C@H](N)[C@@H]2O)C[C@@H]2O[C@](O)(C[C@@H](O)C[C@@H](O)[C@H](O)CC[C@@H](O)C[C@@H](O)CC(=O)O[C@H]1C)C[C@H](O)[C@H]2C(=O)O [Amph, amphotericin B, reference compound]	0.5 mg/L
COc1cc(NC(C)CCCNC(=O)NC(CC(C)C)C(=O)NC(c2ccccc2)c2ccccc2)c2ncccc2c1 (centres unmarked)	> 100 mg/L
COc1cc(NC(C)CCCN)c2ncccc2c1 (centres unmarked) [PQ, reference compound]	> 100 mg/L

// sample COc1ccc(C(=NNC(=O)C(NC(=O)NCCCC(C)Nc2cc(OC)cc3cccnc23)c2ccc(Cl)cc2)c2ccccc2)cc1 (centres unmarked) , its MIC was > 100 mg/L

// sample COc1cc(NC(C)CCCNC(=O)NC(C(=O)NC(c2ccccc2)c2ccc(Cl)cc2)c2ccc(Cl)cc2)c2ncccc2c1 (centres unmarked) , its MIC was > 100 mg/L

// sample COc1cc(NC(C)CCCNC(=O)NC(C(=O)N(C)C(c2ccccc2)c2ccccc2)c2ccccc2)c2ncccc2c1 (centres unmarked) , its MIC was > 100 mg/L

// sample COc1cc(NC(C)CCCNC(=O)NC(C(=O)NC(c2ccccc2)c2ccc(Cl)cc2)c2ccccc2)c2ncccc2c1 (centres unmarked) , its MIC was > 100 mg/L

----------
- Test system: Pseudomonas aeruginosa ATCC 9027
- test method notes: Minimum biofilm eradication assay
- Type: cell-based
quantity measured: MBEC

Known results for compounds:
compound	MBEC
COc1cc(NC(C)CCCNC(=O)NC(CC(C)C)C(=O)NC(c2ccccc2)c2ccccc2)c2ncccc2c1 (stereo not shown)	60 µg/mL
COc1cc(NC(C)CCCNC(=O)NC(C(=O)N(C)C(c2ccccc2)c2ccccc2)c2ccccc2)c2ncccc2c1 (stereo not shown)	>100 µg/mL
COc1ccc(C(=NNC(=O)C(NC(=O)NCCCC(C)Nc2cc(OC)cc3cccnc23)c2ccc(Cl)cc2)c2ccccc2)cc1 (stereo not shown)	>100 µg/mL
COc1cc(NC(C)CCCNC(=O)NC(C(=O)NC(c2ccccc2)c2ccc(Cl)cc2)c2ccc(Cl)cc2)c2ncccc2c1 (stereo not shown)	>100 µg/mL
COc1cc(NC(C)CCCNC(=O)NC(C(=O)NC(c2ccccc2)c2ccccc2)c2ccc(Cl)cc2)c2ncccc2c1 (stereo not shown)	50 µg/mL
COc1cc(NC(C)CCCNC(=O)NC(C(=O)NC(c2ccccc2)c2ccc(Cl)cc2)c2ccccc2)c2ncccc2c1 (stereo not shown)	50 µg/mL

Next:
// sample COc1cc(NC(C)CCCN)c2ncccc2c1 (stereo not shown) [PQ, reference compound] , its MBEC was 70 µg/mL

----------
- test method notes: In vitro haemolytic activity
- Assay type: cell-based
- test context: male, pH 7, 200 μg/ml, 4% human erythrocytes, read-out: Haemolysis (%)
quantity measured: hemolysis at 1 h, 200 µg/ml (%)
Write the value in % as a bare number.

// sample COc1cc(NC(C)CCCN)c2ncccc2c1 (stereo not shown) [PQ, reference compound] , its hemolysis at 1 h, 200 µg/ml was 3.12
